- System: Pseudoperonospora cubensis
- procedure details: Cucumber Downy Mildew (PSPECU), foliar spray, percent disease control
- Type: in vivo
- condition details: foliar, read-out: PSPECU percent control
Would you mind telling me the reported pest or weed control at 200 µg/mL of each entry?

Task: Entry FC(F)(F)c1cccc(Oc2ccc(CCNc3ncnc4nccnc34)cc2)n1 : reported pest or weed control at 200 µg/mL = ?
Output: 80 to 100%

Task: Further, for COc1cc(CCNc2ncnc3nccnc23)ccc1Oc1nccc(C(F)(F)F)n1 ?
Output: 80 to 100%

Task: Another: COc1cc(C(F)(F)F)cc(Oc2ccc(OCCNc3ncnc4nccnc34)cc2)n1
Output: 0 to 49%

Task: Continue with COc1nsc(Oc2ccc(CCNc3ncnc4nccnc34)cc2)n1
Output: 50 to 79%

Task: Do the same for COc1cc(CCNc2ncnc3nccnc23)cc(OC)c1Oc1cc(C(F)(F)F)ccn1 please
Output: 80 to 100%

Task: Cc1cnc2ncnc(NCCc3ccc(O)cc3)c2n1 ?
Output: 0 to 49%

Task: Then c1cnc(Oc2ccc(CCNc3ncnc4nccnc34)cc2)nc1 ?
Output: 80 to 100%

Task: What do we get for COc1cc(CCNc2ncnc3nccnc23)ccc1Oc1ccc(C#N)cn1 ?
Output: 80 to 100%

Task: Then what about the compound Oc1ccc(CCNc2ncnc3ncc(Cl)nc23)cc1 ?
Output: 0 to 49%

* * *

- Tested on: Pseudoperonospora cubensis
- procedure details: Cucumber Downy Mildew (PSPECU), foliar spray, percent disease control
- Format: in vivo
- condition details: foliar, read-out: PSPECU percent control
Kindly supply the reported pest or weed control at 200 µg/mL values for the records listed here.

Task: Query pest or weed control at 200 µg/mL on Pseudoperonospora cubensis for COc1ccc(C(C)Nc2nc(C)nc3nccnc23)cc1 (stereo not drawn) [Compound 19]
Output: 0 to 49%

Task: Moving on to the next molecule: Cc1ccc(Oc2ccc(CCNc3ncnc4nccnc34)cc2)nc1 [Compound 40]
Output: 80 to 100%

Task: Now the same for COc1cc(C)c(CCNc2ncnc3nccnc23)cc1C [Compound 151]
Output: 80 to 100%

Task: Item: COc1cc(C(C)(F)F)cc(Oc2ccc(CCNc3ncnc4nccnc34)cc2)n1 [Compound 191]
Output: 80 to 100%

Task: Can you check Cc1ccnc(Oc2ccc(CCNc3ncnc4nccnc34)cc2)c1 [Compound 42] next?
Output: 80 to 100%

Task: Could you do the same for FC(F)(F)c1ccc(Oc2ccc(CCNc3ncnc4nccnc34)cc2)nc1 [Compound 5] , please?
Output: 80 to 100%

Task: Next record, please: COc1ccnc(Oc2ccc(CCNc3ncnc4nccnc34)cc2)n1 [Compound 16]
Output: 80 to 100%

Task: Moving on to CC(F)(F)c1ccnc(Oc2ccc(CCNc3ncnc4nccnc34)cc2F)c1 [Compound 193]
Output: 80 to 100%

Task: Here is the next molecule: CC(Nc1ncnc2nccnc12)c1ccc(Oc2nccc(C(F)(F)F)n2)cc1 (stereo not drawn) [Compound 68]
Output: 80 to 100%

Task: Try this molecule too: N#Cc1c(Cl)cccc1Oc1ccc(CCNc2ncnc3nccnc23)cc1 [Compound 61]
Output: 80 to 100%

Task: And then FC(F)(F)c1nc(Oc2ccc(CCNc3ncnc4nccnc34)cc2)ccc1Cl [Compound 92] , what is it?
Output: 80 to 100%

Task: Please answer likewise for Fc1cc(Oc2cc(C(F)(F)F)ccn2)ccc1CCNc1ncnc2nccnc12 [Compound 103]
Output: 80 to 100%

Task: Same read-out for CC(F)(F)c1ccnc(Oc2ccc(CCNc3ncnc4nccnc34)cc2O)c1 [Compound 197] ?
Output: 80 to 100%

Task: // same read-out, input: FC(F)(F)c1ccnc(Oc2ccc(CCNc3ncnc4nccnc34)cc2Cl)c1 [Compound 187]
Output: 80 to 100%

Task: Another molecule to look at: CC(F)(F)c1ccnc(Oc2ccc(CCNc3ncnc4nccnc34)cc2)c1 [Compound 44]
Output: 80 to 100%

Task: And what about the molecule Oc1ccc(CCNc2ncnc3nccnc23)cc1F [Compound 177] ?
Output: 0 to 49%

Task: Next up: COc1cc(C(F)(F)F)cc(Oc2cc(C)c(CCNc3ncnc4nccnc34)cc2C)n1 [Compound 179]
Output: 0 to 49%

Task: Same for COc1cc(C(F)(F)F)cc(Oc2ccc(CCNc3ncnc4nccnc34)cc2C)n1 [Compound 167]
Output: 80 to 100%

Task: COc1ccc(CCNc2ncnc3nccnc23)cc1Cl [Compound 158] , same question.
Output: 0 to 49%

Task: Request: COc1cc(CCNc2ncnc3nccnc23)cc(OC)c1O [Compound 181]
Output: 0 to 49%

Task: Next entry: CC(Nc1ncnc2nccnc12)c1ccccc1 (stereo not drawn) [Compound 9]
Output: 80 to 100%

Task: Repeat for the following molecule: FC(F)(F)c1ccnc(Oc2cccc(CCNc3ncnc4nccnc34)c2)c1 [Compound 46]
Output: 80 to 100%

Task: Let us now turn to FC(F)(F)c1cc(Oc2ccc(CCNc3ncnc4nccnc34)cc2)nc(C(F)(F)F)c1 [Compound 115]
Output: 80 to 100%

Task: Now try CCc1ncnc(Oc2ccc(CCNc3ncnc4nccnc34)cc2)c1Cl [Compound 146] .
Output: 80 to 100%

Task: Then CC(F)(F)c1cc[n+]([O-])c(Oc2ccc(CCNc3ncnc4nccnc34)cc2)c1 [Compound 184] ?
Output: 80 to 100%

Task: Next: CCOc1cc(CCNc2ncnc3nccnc23)ccc1Oc1cc(C(C)(F)F)ccn1 [Compound 189]
Output: 80 to 100%

Task: Query CCc1ccc(Oc2ccc(CCN(C(=O)OC(C)(C)C)c3ncnc4nccnc34)cc2)cc1 [Compound 139] next
Output: 0 to 49%

Task: Now consider FC(F)(F)c1ccc(Oc2ccc(CCNc3ncnc4nccnc34)cc2)nn1 [Compound 34] .
Output: 80 to 100%

Task: Next entry: Cc1c(O)ccc(CCNc2ncnc3nccnc23)c1C [Compound 175]
Output: 0 to 49%

Task: Here is the next molecule: Cc1cccc(Oc2ccc(CCNc3ncnc4nccnc34)cc2)n1 [Compound 39]
Output: 80 to 100%

Task: Now the same for CC(C)(C)OC(=O)c1ccnc(Oc2ccc(CCNc3ncnc4nccnc34)cc2)c1 [Compound 192]
Output: 80 to 100%

Task: Entry to check: FC(F)(F)c1cc(Cl)nc(Oc2ccc(CCNc3ncnc4nccnc34)cc2)c1 [Compound 90]
Output: 80 to 100%

Task: What do you have for Cc1cnc2ncnc(NCCc3ccc(Oc4ncc(C(F)(F)F)cc4F)cc3)c2n1 [Compound 53] ?
Output: 80 to 100%

Task: Subsequent entry: Fc1cc(CCNc2ncnc3nccnc23)ccc1Oc1cc(C(F)(F)F)ccn1 [Compound 93]
Output: 80 to 100%

Task: Same question, COCCOc1cc(C(F)(F)F)cc(Oc2ccc(CCNc3ncnc4nccnc34)cc2)n1 [Compound 91] this time
Output: 80 to 100%

Task: Same again, this time with Cc1cc(Oc2ccc(C(F)(F)F)cn2)c(C)cc1CCNc1ncnc2nccnc12 [Compound 156]
Output: 80 to 100%

* * *

Please provide measured pest or weed control at 200 µg/mL for the entries that follow.
- Test system: Pseudoperonospora cubensis
- procedure details: Cucumber Downy Mildew (PSPECU), foliar spray, percent disease control
- Format: in vivo
- condition details: foliar, read-out: PSPECU percent control

Task: // returns reported pest or weed control at 200 µg/mL for input COc1ccc(CCNc2ncnc3nccnc23)cc1F [Compound 176]
Output: 0 to 49%

Task: Another compound: CC(C)OC(=O)c1ccnc(Oc2ccc(CCNc3ncnc4nccnc34)cc2)c1 [Compound 173]
Output: 80 to 100%

Task: And Brc1ccc(Oc2ccc(CCNc3ncnc4nccnc34)cc2)cn1 [Compound 110] ?
Output: 80 to 100%

Task: Record: Oc1ccc(CCNc2ncnc3nccnc23)cc1 [Compound 4, 4-[2-(Pteridin-4-ylamino)-ethyl]-phenol]
Output: 0 to 49%

Task: // query: Fc1nc(C(F)(F)F)c(F)c(Oc2ccc(CCNc3ncnc4nccnc34)cc2)c1F [Compound 89]
Output: 80 to 100%

Task: // repeat for Fc1ccc(-c2ccc(CCNc3ncnc4nccnc34)cc2)cn1 [Compound 121] and report
Output: 80 to 100%

Task: Next up: FC(F)(F)c1ccnc(Oc2ccc(CCNc3ncnc4nccnc34)cc2)c1 [Compound 2]
Output: 80 to 100%

Task: Record: N#Cc1ccnc(Oc2cccc(OCCNc3ncnc4nccnc34)c2)c1 [Compound 88]
Output: 80 to 100%

Task: Subsequent entry: CCOc1cc(CCNc2ncnc3nccnc23)ccc1Oc1cc(C(F)(F)F)ccn1 [Compound 153]
Output: 80 to 100%

* * *

- Test system: Colletotricum lagenarium
- procedure details: Cucumber Anthracnose (COLLLA), foliar spray, percent disease control
- Format: in vivo
- condition details: foliar spray
attribute measured: pest or weed control at 200 µg/mL

Task: Which pest or weed control at 200 µg/mL value is on record for COc1ccc(CCNc2nc(C)nc3nc(C)c(C)nc23)cc1 ?
Output: 0 to 49%

Task: Record: Fc1cccc(Oc2ccc(CCNc3ncnc4nccnc34)cc2)c1C(F)(F)F
Output: 0 to 49%

Task: Also FC(F)(F)COc1ccc(CCNc2ncnc3nccnc23)cn1 , if possible.
Output: 50 to 79%

Task: For Cc1cc(Oc2cc(C(F)(F)F)ccn2)ccc1OCCNc1ncnc2nccnc12 then?
Output: 0 to 49%

Task: Also check COc1ccc(CCNc2ncnc3nccnc23)cc1Br
Output: 0 to 49%

Task: Cool, now Oc1ccc(CCNc2ncnc3nccnc23)cc1Br
Output: 0 to 49%

Task: Proceed to Cc1nc2ncnc(NCCc3ccc(Oc4ncccc4C(F)(F)F)cc3)c2nc1C
Output: 0 to 49%

Task: // same read-out, input: COC(=O)c1cnc(Oc2ccc(CCNc3ncnc4nccnc34)cc2)cc1C(F)(F)F
Output: 0 to 49%

Task: Now try FC(F)(F)c1ccnc(Oc2ccc(CCNc3ncnc4nccnc34)cc2Br)c1 .
Output: 80 to 100%

Task: Request: COc1cc(CCNc2ncnc3nccnc23)ccc1Oc1cc(C(C)C)ccn1
Output: 0 to 49%

Task: Then this molecule: CCOc1cc(CCNc2ncnc3nccnc23)ccc1Oc1cc(C(C)C)ccn1
Output: 0 to 49%

Task: Now give it for Cc1nc(NCCc2ccc(O)cc2)c2nc(C)c(C)nc2n1 too.
Output: 0 to 49%

Task: Entry CC(C)c1ccnc(Oc2ccc(CCNc3ncnc4nccnc34)cc2)c1 please
Output: 50 to 79%

Task: Consider next the molecule Cc1nc(NCCc2ccc(Oc3cc(C(F)(F)F)ccn3)cc2)c2nc(C)c(C)nc2n1 in the same way.
Output: 0 to 49%

Task: Then this molecule: COC(=O)c1cc(CCNc2ncnc3nccnc23)ccc1Oc1cc(C(F)(F)F)ccn1
Output: 0 to 49%

Task: Continue with CC1=CSc2cc(CCNc3ncnc4nccnc34)ccc2O1
Output: 0 to 49%

Task: Try this molecule too: CC(C)(C)OC(=O)N(CCc1ccc(O)cc1)c1ncnc2nccnc12
Output: 0 to 49%

Task: # repeat for CC(C)(C)c1ccnc(Oc2ccc(CCNc3ncnc4nccnc34)cc2)c1
Output: 0 to 49%

Task: Try the molecule Cc1nc(NCCc2ccc(Oc3ncc(C(F)(F)F)cc3F)cc2)c2nc(C)c(C)nc2n1
Output: 0 to 49%
